Reported values of IC50 for individual entries
- System: Jurkat
- PROCEDURE_DETAILS: Cytotoxicity against human Jurkat cells
- Assay type: functional, cell-based

Examples from the recorded data:
# COMPOUND, READOUT_LABEL, VALUE_MEASURED
measured = [
    ("C/C=C1/CN2CCc3c([nH]c4ccccc34)[C@H]2C[C@@H]1C(C)=O [ARBORICINE]", "IC50", "> 25 µg/mL"),
    ("CC[C@]12CCCN3CC[C@]4(C(=C(C(=O)OC)C1)Nc1ccccc14)[C@@H]32 [VINCADIFFORMINE]", "IC50", "21.8 µg/mL"),
    ("C/C=C1\\[C@@H](C(C)=O)CCN2CCc3c([nH]c4ccccc34)[C@H]12 [ARBORICININE]", "IC50", "> 25 µg/mL"),
]

QUERY: Provide IC50, recorded with Jurkat, of C=C1C2=Nc3ccccc3[C@@]23CCN2C/C(=C/C)[C@@H]1C[C@H]23 [VALPARICINE]
RESULT: 0.25 µg/mL

QUERY: Given COC(=O)C1=C2Nc3ccccc3[C@]23CCN2CC[C@H]1[C@H]([C@H](C)OC)[C@@H]23 , report its IC50 on Jurkat.
RESULT: > 25 µg/mL

QUERY: Give IC50 for COC(=O)C1=C2Nc3ccccc3[C@]23CCN2CC[C@H]1[C@H]([C@@H](C)OC)[C@@H]23 tested on Jurkat.
RESULT: > 25 µg/mL
